Species on record: Rattus norvegicus
Assay: Open TG-GATES - Regimen: Daily Repeat
Assay type: toxicity, organism-based, Sprague-Dawley
Set-up: regimen Daily Repeat, gender Male, age 6 weeks
Conditions: in vivo, po, 100 mg/kg, […], tissue Plasma, route gavage, dose level Low, time 28 day

compound: CC(=O)[C@@]1(O)CC[C@H]2[C@@H]3C=C(Cl)C4=CC(=O)CC[C@]4(C)[C@H]3CC[C@@]21C
BUN, mg/dL: 18.8
//
compound: CCCCNC(=O)NS(=O)(=O)c1ccc(C)cc1 [TOLBUTAMIDE]
BUN, mg/dL: 17.8
//
compound: O=C(O)c1ccccc1Nc1ccccc1
BUN, mg/dL: 14.2
//
compound: CC(S)C(=O)NCC(=O)O (centres undefined)
BUN, mg/dL: 19.2
